Each record here notes measured Kd.
Assay System: E. coli iPGM (Escherichia coli, UniProt P37689)
Experiment: SPR binding kinetics and saturation binding, biotinylated iPGM on Biotin CAPture chip (Biacore S200)
Condition Summary: Supplementary Table 5, SPR, E.c. iPGM; unit inferred
Supply the numeric figure in nM, leaving out any unit text.

Query: Would you mind telling me what Kd value was observed for CC(C)C[C@H](NC(=O)[C@H](Cc1ccc(O)cc1)NC(=O)[C@@H]1CSCC(=O)N[C@H](Cc2ccc(O)cc2)C(=O)N[C@@H](CC(=O)O)C(=O)N[C@@H](Cc2ccc(O)cc2)C(=O)N2CCC[C@H]2C(=O)NCC(=O)N[C@@H](CC(=O)O)C(=O)N[C@@H](Cc2ccc(O)cc2)C(=O)N1)C(=O)N[C@@H](Cc1ccc(O)cc1)C(=O)NCC(=O)N[C@@H](Cc1c[nH]cn1)C(=O)N[C@@H](CS)C(N)=O [Ce-2 T13H] ?
Result: 62.7

Query: Would you mind telling me what Kd value was observed for CC(C)C[C@H](NC(=O)[C@H](Cc1ccc(O)cc1)NC(=O)[C@@H]1CSCC(=O)N[C@H](Cc2ccc(O)cc2)C(=O)N[C@@H](CC(=O)O)C(=O)N[C@@H](Cc2ccc(O)cc2)C(=O)N2CCC[C@H]2C(=O)NCC(=O)N[C@@H](CC(=O)O)C(=O)N[C@@H](Cc2ccc(O)cc2)C(=O)N1)C(=O)N[C@@H](Cc1ccc(O)cc1)C(=O)NCC(=O)N[C@H](C(=O)N[C@@H](CS)C(N)=O)[C@@H](C)O ?
Result: 69.2

---
Query: Would you mind telling me what Kd value was observed for CC(C)C[C@H](NC(=O)[C@H](Cc1ccc(O)cc1)NC(=O)[C@@H]1CSCC(=O)N[C@H](Cc2ccc(O)cc2)C(=O)N[C@@H](CC(=O)O)C(=O)N[C@@H](Cc2ccc(O)cc2)C(=O)N[C@@H](C(C)C)C(=O)NCC(=O)N[C@@H](CC(=O)O)C(=O)N[C@@H](Cc2ccc(O)cc2)C(=O)N1)C(=O)N[C@@H](Cc1ccc(O)cc1)C(=O)NCC(=O)N[C@H](C(=O)N[C@@H](CS)C(N)=O)[C@@H](C)O ?
Result: 7.29

Query: Would you mind telling me what Kd value was observed for CC(C)C[C@H](NC(=O)[C@H](Cc1ccc(O)cc1)NC(=O)[C@@H]1CSCC(=O)N[C@H](Cc2ccc(O)cc2)C(=O)N[C@@H](CC(=O)O)C(=O)N[C@@H](Cc2ccc(O)cc2)C(=O)N2CCC[C@H]2C(=O)NCC(=O)N[C@@H](CC(=O)O)C(=O)N[C@@H](Cc2ccc(O)cc2)C(=O)N1)C(=O)N[C@@H](Cc1ccc(O)cc1)C(=O)NCC(=O)NCC(=O)N[C@@H](CS)C(N)=O [Ce-2 T13G] ?
Result: 10.8

meta.source: paper PMC8113725
